Ref: PubChem BioAssay (NCI)

- assay.details: NCI Yeast Anticancer Drug Screen. Data for the rad14 strain (AID 159);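 further: 0% = growth of vehicle-treated control cultures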
- condition.details: S. cerevisiae rad14 strain growth inhibition; at 100.0 µM; hits give high values
This is part of a sample that, as a whole, favours compounds with a hit. Of some 79,000 tested, about 15% had one in any assay.
For each of the molecules below, state its growth inhibition.
The answer is to be given in %; state only the numeric part.

Query: Dear colleague, please send me the reported growth inhibition for "CCCCc1nnc(NS(=O)(=O)c2ccc(C)cc2)s1" when you can.
Result: 82

Query: Give the reported value of growth inhibition for this record: "COc1cc(CSc2ccc(O)cc2)cc(O)c1O"
Result: 1

Query: For the molecule CCCCCCC(O)CNCc1ccnc2ccc(OC)cc12 (stereo not drawn) , report growth inhibition.
Result: 49

Query: Return value of growth inhibition for input "COc1cc(O)c(O)c(C(C)(C)C)c1" , no commentary.
Result: 19

Query: Report growth inhibition, nothing else, for this molecule: "CN1CCN(C(=O)/C=C/C(=O)c2ccccc2)CC1"
Result: 87

Query: Give reported growth inhibition value for O=C1c2cccnc2C(=O)C2C3C=CC(C3)C12 (stereo not drawn)
Result: 99

Query: Determine from records and report growth inhibition for "CCCC/C=C/C(C)(C(=O)OCC)C(=O)OCC"
Result: 15

Query: Please give measured growth inhibition of the following entry: "CC(C)CN(CC(C)C)C(=O)c1ccc(Cl)c(Cl)c1"
Result: 99

Query: Please supply the value of reported growth inhibition for the item "CC(C)=NOC(=O)Nc1ccc(Cl)cc1"
Result: 45

Query: Return reported growth inhibition. Input molecule: "COc1ccc(/C=C/c2sc3ccccc3[n+]2CCCCI)cc1OC"
Result: 98

Query: Using known records, supply growth inhibition for "CCCCCCCCCCCCNC(C)=O"
Result: 40

Query: Given "COc1ccc2c(c1)n([O-])c1ccccc1[n+]2=O" , respond with its growth inhibition.
Result: 95

Query: Item "Cc1nc2ccccc2nc1NNc1ccccc1" : provide growth inhibition
Result: 38

----------
- assay.details: NCI Yeast Anticancer Drug Screen. Data for the rad50EPP+ strain (AID 151);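 further: 0% = growth of vehicle-treated control cultures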
- condition.details: S. cerevisiae rad50 mutant strain, at 33.0 µM, hits give high values
The panel holds about 79,000 compounds, 15% with a hit somewhere; the sample as a whole holds those more often.
Short version: growth inhibition at least 30% is satisfied, less is not satisfied.

Query: I'd appreciate it if you could say whether "CC(C)/C(Cl)=N\OC(=O)Nc1ccc(F)cc1F" has growth inhibition at least equal to 30%.
Result: satisfied

Query: Determine whether measured growth inhibition meets or exceeds 30% for "NNC(=O)CCc1cc2ccccc2c2ccccc12"
Result: not satisfied

Query: For this compound, is measured growth inhibition 30% or higher? "COc1cc(/C=C2\NC(=O)N(/C=C3\C(=O)Oc4ccccc4C3=O)C2=O)ccc1O"
Result: not satisfied

Query: Form field: growth inhibition at least 30%? Entry: C[CH2][Sn]([CH2]C)([O]C(=O)C(N)Cc1ccccc1)[O]C(=O)C(N)Cc1ccccc1 (stereo not drawn)
Result: not satisfied

Query: Could you tell me if the measured growth inhibition of "Oc1ccc(SCc2ccc(NCc3ccccc3)cc2)cc1" reaches 30% or more?
Result: not satisfied

Query: In plain terms: is recorded growth inhibition at least 30% for CCCCCCCCCCCC(O)S(=O)(=O)O (stereo not drawn) ?
Result: not satisfied

Query: Hi, just wondering whether "CC(=O)Nc1ccc2c(c1)-c1ccccc1C2=O" shows growth inhibition of 30% or higher.
Result: not satisfied

Query: Answer whether growth inhibition of O=C1C=C(c2ccccc2)OC1(c1ccccc1)N1CCOCC1 (stereo not drawn) is greater than or equal to 30%.
Result: not satisfied

Query: Hi, just wondering whether O=C1CSC(c2cccc(Cl)c2)N1c1ccc(-c2ccc(-n3c(-c4ccccc4)nc4ccccc4c3=O)cc2)cc1 (stereo not drawn) shows growth inhibition of 30% or higher.
Result: not satisfied

Query: Form field: growth inhibition at least 30%? Entry: "CC(C)OC(=O)Nc1ccc2nc(-c3cscn3)[nH]c2c1"
Result: satisfied

Query: Textbook exercise: given the entry "COc1ccc2c(c1)n([O-])c1ccccc1[n+]2=O" , state whether its growth inhibition is greater than or equal to 30%.
Result: satisfied

Query: Please tell me: is the compound O=C1c2cccnc2C(=O)C2C3C=CC(C3)C12 (stereo not drawn) at or over 30% in terms of growth inhibition?
Result: satisfied

Query: Hi, just wondering whether "c1ccc2[nH]c(-c3cscn3)nc2c1" shows growth inhibition of 30% or higher.
Result: not satisfied

Query: Would you say "Cc1cc(NCCCCCCCCNc2cc(C)nc3cc(N)ccc23)c2ccc(N)cc2n1" shows growth inhibition at minimum 30%?
Result: satisfied

Query: Evaluate "CCOC(=O)c1[nH]cc(C)c1-c1cccn1-c1ccc(Cl)cc1[N+](=O)[O-]" : growth inhibition at minimum 30%?
Result: satisfied

Query: Does the compound "Cc1nc2ccccc2nc1NNc1ccccc1" have recorded growth inhibition that is 30% or more?
Result: satisfied

Query: Assess whether reported growth inhibition for "Cc1c2ccnc(C(=O)NCCN(C)C)c2cc2c3cc(O)ccc3n(C)c12" sits at 30% or higher.
Result: satisfied

Query: Is reported growth inhibition greater than or equal to 30% here: "COc1oc(C(=O)NC2CCCCC2)c(-c2ccc(Cl)cc2)c1S(=O)(=O)c1ccccc1"
Result: not satisfied

Query: Decide: is the reported value of growth inhibition for Oc1ccc2c(c1)C(O)CCCC2 (stereo not drawn) equal to or greater than 30%?
Result: satisfied

Query: API: above_or_equal(metric=growth inhibition, cutoff=30%) for item "CC[n+]1oc(C(=O)c2ccc(Cl)cc2)c(-c2ccccc2)c1-c1ccccc1.[Cl][Fe]([Cl])([Cl])[Cl]"
Result: satisfied

Query: Tell me whether growth inhibition is at least 30% here: CC(=O)OCC1OC2OC(=O)NC2C(OC(C)=O)C1OC(C)=O (stereo not drawn)
Result: not satisfied

Query: Decide: is the reported value of growth inhibition for "O=C(NO)Nc1cc(Cl)cc(Cl)c1" equal to or greater than 30%?
Result: satisfied

----------
- assay.details: NCI Yeast Anticancer Drug Screen. Data for the mlh1 strain (AID 171);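 further: 0% = growth of vehicle-treated control cultures of the same strain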
- condition.details: S. cerevisiae mlh1 strain growth inhibition; at 3.7 µM; hits give high values
About 79,000 compounds went through this panel and 15% of them were active in at least one assay; those are over-represented in the sample as a whole.
property.measured: growth inhibition (%)
Supply the numeric figure in %, leaving out any unit text.

Query: Tell me growth inhibition reported for "CCCCCCCCCCCC1=NCCO1"
Result: -3

Query: Identify measured growth inhibition corresponding to "Cc1cc(N(CCOS(C)(=O)=O)CCOS(C)(=O)=O)ccc1C=Nc1ccc(-c2nc(Cc3ccccc3)sc2C)cc1"
Result: -15

Query: Input "COc1cc(/C=N/Nc2nnc3c4ccccc4c4ncccc4c3n2)cc(OC)c1OC" , output reported growth inhibition.
Result: 0

Query: Fill in reported growth inhibition for this entry: O=C1C=C(c2ccccc2)OC1(c1ccccc1)N1CCOCC1 (stereo unspecified)
Result: 1

Query: Entry "COc1cc(O)c(O)c(C(C)(C)C)c1" needs its growth inhibition filled in; supply it.
Result: 3

Query: Consider the molecule "CCOC(=N)c1ccc(O)c(OC)c1" and give its recorded growth inhibition.
Result: -3

----------
- assay.details: NCI Yeast Anticancer Drug Screen. Data for the CLN2oe strain (AID 163);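 further: 0% = growth of vehicle-only control cultures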
- condition.details: S. cerevisiae CLN2oe strain, at 100.0 µM, hits give high values
About 79,000 compounds went through this panel and 15% of them were active in at least one assay; those are over-represented in the sample as a whole.
Classify by growth inhibition. Ranges: lower range: < 50%; middle range: ≥ 50% and < 90%; upper range: ≥ 90%

Query: Which of the defined bands does the recorded growth inhibition of CC(O)=NC(Cc1ccc2ccccc2c1)C(O)=NC(Cc1ccc(Cl)cc1)C(O)=NC(Cc1c[nH]c2ccccc12)C(O)=NC(CO)C(O)=NC(Cc1ccc(O)cc1)C(O)=NC(CCCN=C(N)N)C(O)=NC(CC(C)C)C(O)=NC(CCCN=C(N)N)C(=O)N1CCCC1C(O)=NC(C)C(=N)O (configuration not stated) sit within?
Result: lower range

Query: Field: class (growth inhibition) — entry: "O=c1ccc(=O)n(-c2ccccc2)[nH]1"
Result: upper range

Query: Which growth inhibition band matches "O=C(Nc1ccc(Cl)cc1)Nc1nnc2nc(C(C(=O)c3cccc([N+](=O)[O-])c3Cl)c3nc4nnc(NC(=O)Nc5ccc(Cl)cc5)n4[nH]c3=O)c(=O)[nH]n12" ?
Result: lower range

Query: Input CN(C)CCOC1(Cc2ccc(F)cc2)CCC(C(C)(C)C)CC1 (configuration not stated) ; output its category
Result: upper range

Query: // return the class label for "CCC(C)(C)c1ccc(Oc2cccc(C(=O)O)c2)cc1"
Result: middle range

Query: Into which category would you place "COC1=C(OC)C(=O)C(Sc2ccc3ccccc3c2)=CC1=O" ?
Result: middle range

Query: Category of "O=P(NC1CCCCC1)(OCc1ccccc1)OCc1ccccc1" , please.
Result: lower range

Query: Bin? "CCOc1ccc(NC(=O)C2=C(C)NC(C)=C(C(=O)Nc3ccc(OCC)cc3)C2c2cccc([N+](=O)[O-])c2)cc1"
Result: middle range

Query: # bin label for CCCCCCCCCCCCCCCCOP(=O)(O)OCC(N)C(=O)O (configuration not stated)
Result: upper range

Query: Category of "CCOC(=O)/C(=C\c1ccc(C#N)cc1)C(C)=O" :
Result: upper range

Query: Could you place "Cc1ccc(N=Nc2ccc(O)c(=O)cc2)cc1" in its proper category? Many thanks.
Result: upper range

Query: Category of "Cc1c2cc[n+](Cc3ccc(I)cc3)cc2c(C)c2c1[nH]c1ccccc12" , please.
Result: upper range

Query: Class for "C=C(C(=C)n1nnc(C(=O)OC)c1C(=O)OC)n1nnc(C(=O)OC)c1C(=O)OC" ?
Result: lower range

Query: State the band of "Cc1cccc(/C=N/NC(=S)N2CCCC2)n1"
Result: upper range

Query: Into which bin does this compound go? "O=C(NCCCNCCN1C(=O)c2cccc3cc([N+](=O)[O-])cc(c23)C1=O)c1cc(-c2ccccc2)nc2ccccc12"
Result: upper range

Query: Exam item: assign CC(=O)OC1CCC2(C)C(=CC(C3C=C4CC(OC(C)=O)CCC4(C)C4=C3C3CC5OC6(CCC(C)CO6)C(C)C5C3(C)CC4)C3=C2CCC2(C)C3CC3OC4(CCC(C)CO4)C(C)C32)C1 (configuration not stated) to the correct category.
Result: middle range

Query: Dear colleague, I would appreciate it if you could identify the bin for "CCOC1=C/C(=N\Nc2ccc([N+](=O)[O-])cc2)CCC1" and reply at your convenience.
Result: lower range

Query: Please classify: "O/N=C\c1c(O)ccc2ccccc12"
Result: lower range

Query: Which growth inhibition band matches "Nc1ccc(F)cc1S" ?
Result: upper range

Query: Hello team, could you let me know which band the following compound falls into: Cc1cccc(C(C)(C)C)c1NC(=O)C(C#N)C1=C(Cl)C(=O)c2ccccc2C1=O (configuration not stated)
Result: upper range

Query: In plain terms, what class is "c1ccc2c(c1)sc1c3cnccc3ccc21" ?
Result: lower range

Query: # bin label for "CCN(CC)CCNc1ccc2ncn3c4cc(OC)c(OC)c(=O)c4c(O)c1c23"
Result: lower range

Query: Just checking, what class would you give "Cc1cc(=O)oc2c(C)c3occc(=O)c3cc12" here?
Result: lower range

Query: The entry to classify is "O=C1C(=O)c2ccccc2C(O)=C1C(C1=C(O)c2ccccc2C(=O)C1=O)c1ccc(Cl)cc1" ; which class holds it?
Result: middle range

Query: State the class of the compound shown: CCCCCCC(O)CNCc1ccnc2ccc(OC)cc12 (configuration not stated)
Result: middle range

Query: Using the reported growth inhibition, which band applies to "N/C(=N/N=C/c1cc(Br)cc(Br)c1O)NO" ?
Result: upper range

Query: Looking at "C[C](C)(C)[Ge]([O][Ge]([c]1ccccc1)[c]1ccccc1)([O][Ge]([c]1ccccc1)[c]1ccccc1)[C](C)(C)C" , which class would you pick?
Result: middle range

Query: Could you place "COc1ccc(C(=O)C(CN(C)C)CN(C)C)cc1" in its proper category? Many thanks.
Result: lower range

Query: Field: class (growth inhibition) — entry: CC(NCCN(C)C)C1CCC2C3CCc4cc(O)ccc4C3CCC12C (configuration not stated)
Result: upper range

Query: Bin this entry: "CC(/C=C/c1ccccc1)=N\NC(N)=S"
Result: lower range

Query: Class for "O=C(/C=C/c1cc(Cl)cc(Cl)c1O)c1cccc(O)c1" ?
Result: upper range

Query: For "NNC(=O)CCc1cc2ccccc2c2ccccc12" , which growth inhibition bin applies?
Result: upper range

Query: Returns: class label. Input: "CN(C)c1nc(=Nc2cccc(Cl)c2)ss1"
Result: upper range

Query: Returns: class label. Input: O=C1c2cccnc2C(=O)C2C3C=CC(C3)C12 (configuration not stated)
Result: upper range

Query: Which of the defined bands does the recorded growth inhibition of C[Si](C)(C)/C=C/CCNC(C#N)c1ccccc1 (configuration not stated) sit within?
Result: upper range

Query: Which class is correct for the following compound? "O=C(O)c1ccccc1/C=N/N=C1c2ccccc2-c2ccccc21"
Result: lower range

Query: // bin(item) where item = Cc1ccc(NC(c2ccccc2)c2ccc3cccnc3c2O)cc1 (configuration not stated)
Result: lower range

Query: Classify this compound: "Oc1ccc(-c2nc(-c3ccc(F)cc3)c(-c3ccc4ccccc4n3)[nH]2)cc1"
Result: upper range
